Data origin: patent US20260199301A1

Reported solubility at 24 h values follow for various compounds
experiment: Solubility, miniaturised shake-flask method; assay type: physicochemical; details: aqueous buffer, thermodynamic from solid, pH 7.4 as headed, phosphate buffer, 25° C.
Only the number, expressed in µM, is required.

{"compound": "O=C1C=C(C(=O)O)C2C(C3CC3)=NN(c3ccc(Cl)cc3)C2N1 (stereo not shown)", "measurement": 190}
{"compound": "O=C1C=C(C(=O)O)C2C(C3CC3)=NN(c3ccc(Br)cc3)C2N1 (stereo not shown)", "measurement": 195}

// next item, solubility at 24 h requested
In: What solubility at 24 h value was documented for this compound, COc1ccc(N2N=C(C3CC3)C3C(C(=O)O)=CC(=O)NC32)cc1 (stereo not shown) ?
Out: 120
